# TESTED ON: recombinant human PAI-1 (Homo sapiens)
# Construct: purchased Molecular Innovations, Inc
# PROCEDURE SUMMARY: Test Example 2: human PAI-1 inhibitory activity (tPA fluorogenic substrate, pH 7.4 HEPES buffer)
# Type: biochemical
Please respond with reported pIC50 for every item in the list.
One number for each entry, as −log10 of the molar value.

Example entries and their recorded answers appear below.
CCC(CC)Oc1ccc(-c2ccc(OC(F)(F)F)cc2)cc1N(CCCCc1ccccc1)C(=O)C(=O)O
6.16
CCCCCOc1ccc(-c2ccc(OC(F)(F)F)cc2)cc1N(CCCCC)C(=O)C(=O)O
5.97

Now consider a different compound.
Please look up its pIC50: CCCCCCCOc1cc(-c2ccc(OC(F)(F)F)cc2)ccc1N(CCCCc1ccccc1)C(=O)C(=O)O
6.33

* * *

# TESTED ON: recombinant human PAI-1 (Homo sapiens, UniProt P05121)
# Construct: purchased Molecular Innovations, Inc
# Sequence (P05121 24-402): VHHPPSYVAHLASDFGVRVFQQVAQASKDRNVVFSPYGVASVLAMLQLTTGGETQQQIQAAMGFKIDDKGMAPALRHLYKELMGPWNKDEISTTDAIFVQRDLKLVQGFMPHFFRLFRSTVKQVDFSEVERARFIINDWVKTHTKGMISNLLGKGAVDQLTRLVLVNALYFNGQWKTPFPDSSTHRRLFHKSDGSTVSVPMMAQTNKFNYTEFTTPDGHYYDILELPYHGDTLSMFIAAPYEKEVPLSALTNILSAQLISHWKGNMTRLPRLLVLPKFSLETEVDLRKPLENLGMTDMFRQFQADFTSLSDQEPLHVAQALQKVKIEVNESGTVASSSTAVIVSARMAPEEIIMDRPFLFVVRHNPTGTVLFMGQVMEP
# PROCEDURE SUMMARY: Test Example 1: human PAI-1 inhibitory activity (tPA fluorogenic substrate, pH 7.5 Tris buffer)
# Assay type: biochemical
# RECORDED CONDITIONS: Compound Concentration 25 μM; Tris buffer
# Description: 50 mM Tris, 150 mM NaCl, 10 μg/ml BSA, 0.01% Tween80 (SIGMA-ALDRICH Corporation)
QUANTITY NAME: Inhibition Rate of PAI-1 Activity (%)
Answers are plain numbers, in %.

CC(C)(C)c1ccc(COc2cc(-c3ccc(OC(F)(F)F)cc3)ccc2/C=C/C(=O)O)cc1
91

Provide Inhibition Rate of PAI-1 Activity (%) values for the following items, in order.
1. CCCCCN(C(=O)C(=O)O)c1ccc(-c2ccc(OC(F)(F)F)cc2)cc1
2. CC(C)(C)c1ccc(CN(C(=O)C(=O)O)c2ccccc2OCc2ccc(OC(F)(F)F)cc2)cc1
3. CC(C)(C)c1ccc(COc2ccc(-c3ccc(OC(F)(F)F)cc3)cc2COCC(=O)O)cc1
4. O=C(O)CCc1cc(OCc2ccc(OC(F)(F)F)cc2)ccc1OCc1ccc(OC(F)(F)F)cc1
5. O=C(O)C(=O)N(Cc1ccc(O)cc1)c1ccc(-c2ccc(OC(F)(F)F)cc2)cc1
6. CC(C)(C)c1ccc(CN(C(=O)C(=O)O)c2ccc(N3CCCCC3=O)c(-c3ccc(OC(F)(F)F)cc3)c2)cc1
7. CC(C)(C)c1ccc(Oc2ccc(Oc3ccc(OC(F)(F)F)cc3)cc2C=CC(=O)O)cc1
8. CCCCc1ccc(COc2ccc(-c3ccc(C(C)(C)C)cc3)cc2CCC(=O)O)cc1

1. 31
2. 95
3. 97
4. 84
5. 31
6. 86
7. 99
8. 93

* * *

# TESTED ON: recombinant human PAI-1 (Homo sapiens, UniProt P05121)
# Construct: purchased Molecular Innovations, Inc
# PROCEDURE SUMMARY: Test Example 1: human PAI-1 inhibitory activity (tPA fluorogenic substrate, pH 7.5 Tris buffer)
# Assay type: biochemical
# RECORDED CONDITIONS: Compound Concentration 5 μM; Tris buffer
Label label 1 when Inhibition Rate of PAI-1 Activity (%) is at or above 40%; anything below gets label 0.

Does the reported Inhibition Rate of PAI-1 Activity (%) for CC(C)(C)c1ccc(COc2ccc(Nc3ccc(OC(F)(F)F)cc3)cc2CCC(=O)O)cc1 fall at or above the 40% mark?
label 0

Does the reported Inhibition Rate of PAI-1 Activity (%) for COc1ccc(-c2ccc(OC(F)(F)F)cc2)cc1N(Cc1ccc(C(C)(C)C)cc1)C(=O)C(=O)O fall at or above the 40% mark?
label 1

Does the reported Inhibition Rate of PAI-1 Activity (%) for CC(C)Oc1ccc(N(Cc2ccc(C(C)(C)C)cc2)C(=O)C(=O)O)cc1-c1ccc(OC(F)(F)F)cc1 fall at or above the 40% mark?
label 1

* * *

# TESTED ON: recombinant human PAI-1 (Homo sapiens)
# Construct: purchased Molecular Innovations, Inc
# PROCEDURE SUMMARY: Test Example 1: human PAI-1 inhibitory activity (tPA fluorogenic substrate, pH 7.5 Tris buffer)
# Format: biochemical
# RECORDED CONDITIONS: Compound Concentration 25 μM; Tris buffer
# Protocol: 50 mM Tris, 150 mM NaCl, 10 μg/ml BSA, 0.01% Tween80 (SIGMA-ALDRICH Corporation)
QUANTITY NAME: Inhibition Rate of PAI-1 Activity (%)
One number for each entry, in %.

Example entries and their recorded answers appear below.
CCCCc1ccc(-c2ccc(N(Cc3ccc(C(C)(C)C)cc3)C(=O)C(=O)O)cc2)cc1 [Compound 164]
96
CCCOc1ccc(-c2ccc(OC(F)(F)F)cc2)cc1N(CCCCc1ccccc1)C(=O)C(=O)O [Compound 236]
95
O=C(O)C=Cc1c(Oc2ccc(OC(F)(F)F)cc2)cccc1Oc1ccc(OC(F)(F)F)cc1 [Compound 97]
53

Provide Inhibition Rate of PAI-1 Activity (%) values for the following items, in order.
1. O=C(O)C(=O)N(Cc1c(Cl)cccc1Cl)c1ccc(-c2ccc(OC(F)(F)F)cc2)cc1 [Compound 171]
2. Cc1cc(-c2ccc(OC(F)(F)F)cc2)cc(/C=C/C(=O)O)c1OCc1ccc(C(C)(C)C)cc1 [Compound 83]
3. O=C(O)C(=O)N(CCCc1ccccc1)c1ccc(-c2ccc(OC(F)(F)F)cc2)cc1 [Compound 224]
4. CC(C)(C)c1ccc(CN(C(=O)C(=O)O)c2cc(-c3ccccc3)cc(C(F)(F)F)c2)cc1 [Compound 140]
5. CC(C)(C)c1ccc(Oc2cc(-c3ccc(OC(F)(F)F)cc3)ccc2OC(F)(F)C(=O)O)cc1 [Compound 120]
6. Cc1ccc(N(Cc2ccc(C(C)(C)C)cc2)C(=O)C(=O)O)cc1Oc1ccc(OC(F)(F)F)cc1 [Compound 187]
7. CC(C)(C)c1ccc(COc2ccc(-c3ccc(OC(F)(F)F)cc3)cc2OCc2nnn[nH]2)cc1 [Compound 122]

[81, 56, 86, 77, 98, 88, 99]

Provide Inhibition Rate of PAI-1 Activity (%) values for the following items, in order.
1. CCCOc1ccc(N(CCCc2ccccc2)C(=O)C(=O)O)cc1-c1ccc(OC(F)(F)F)cc1 [Compound 229]
2. Cc1cc(-c2ccc(OC(F)(F)F)cc2)cc(C)c1N(Cc1ccc(C(C)(C)C)cc1)C(=O)C(=O)O [Compound 152]
3. CC(C)(C)c1ccc(CN(C(=O)C(=O)O)c2ccc(-c3ccc(C#N)cc3)cc2)cc1 [Compound 149]
4. CC(C)(C)c1ccc(COc2ccc(-c3cccc(OC(F)(F)F)c3)cc2CCC(=O)O)cc1 [Compound 64]
5. Cc1ccc(-c2ccccc2)cc1N(Cc1ccc(C(C)(C)C)cc1)C(=O)C(=O)O [Compound 137]
6. CC(C)(C)c1ccc(CN(C(=O)C(=O)O)c2ccc(-c3cccc(OC(F)(F)F)c3)cc2)cc1 [Compound 200]

[94, 93, 34, 95, 61, 92]

* * *

# TESTED ON: recombinant human PAI-1 (Homo sapiens, UniProt P05121)
# Construct: purchased Molecular Innovations, Inc
# PROCEDURE SUMMARY: Test Example 2: human PAI-1 inhibitory activity (tPA fluorogenic substrate, pH 7.4 HEPES buffer)
# Assay type: biochemical
# RECORDED CONDITIONS: human PAI-1; compound concentration 0.1 μM
Please respond with reported Inhibition Rate of PAI-1 Activity (%) for every item in the list.
Give bare numbers, in %.

Example entries and their recorded answers appear below.
CC(C)(C)c1ccc(Oc2ccc(-c3ccc(C(C)(C)C)cc3)cc2OCC(=O)O)cc1 [Compound 453]
4
O=C(O)C(=O)N(CCCCc1ccccc1)c1ccc(-c2ccc3ccccc3c2)cc1 [Compound 671]
26
CCCCCOc1ccc(-c2ccc(OC(F)(F)F)cc2)cc1N(CCCOCc1ccccc1)C(=O)C(=O)O [Compound 655]
3

Provide Inhibition Rate of PAI-1 Activity (%) values for the following items, in order.
1. CCCN(CC(=O)O)c1cc(-c2ccc(OC(F)(F)F)cc2)ccc1Oc1ccc(C(C)(C)C)cc1 [Compound 435]
2. CC(C)(C)c1ccc(Oc2cc(-c3ccc(C(C)(C)C)cc3)ccc2OCC(=O)O)cc1 [Compound 446]
3. O=C(O)/C=C/c1ccc(-c2ccc(OC(F)(F)F)cc2)cc1Oc1ccc(OC(F)(F)F)cc1 [Compound 477]
4. O=C(O)C(=O)N(CCCCc1ccccc1)c1cc(-c2ccc(OC(F)(F)F)cc2)ccc1OC1CCCC1 [Compound 658]
5. CCCCCOc1ccc(-c2ccc(Oc3ccc(C(C)(C)C)cc3)c(OCC(=O)O)c2)cc1 [Compound 454]
6. CC(C)[C@@H]1CC[C@@H](C)C[C@H]1Oc1ccc(-c2ccc(OC(F)(F)F)cc2)cc1N(CCCCc1ccccc1)C(=O)C(=O)O [Compound 639]

1. 12
2. 3
3. 7
4. 9
5. 11
6. 6

* * *

# TESTED ON: recombinant human PAI-1 (Homo sapiens, UniProt P05121)
# Construct: purchased Molecular Innovations, Inc
# PROCEDURE SUMMARY: Test Example 1: human PAI-1 inhibitory activity (tPA fluorogenic substrate, pH 7.5 Tris buffer)
# Type: biochemical
# RECORDED CONDITIONS: Compound Concentration 25 μM; Tris buffer
# Method: 50 mM Tris, 150 mM NaCl, 10 μg/ml BSA, 0.01% Tween80 (SIGMA-ALDRICH Corporation)
Label Y when Inhibition Rate of PAI-1 Activity (%) is at or above 90%; anything below gets N.

COc1cc(-c2ccc(OC(F)(F)F)cc2)cc(CCC(=O)O)c1OCc1ccc(C(C)(C)C)cc1
Y

Does the reported Inhibition Rate of PAI-1 Activity (%) for CC(C)(C)c1ccc(Oc2cccc(-c3ccc(OC(F)(F)F)cc3)c2C=CC(=O)O)cc1 fall at or above the 90% mark?
Y

Does the reported Inhibition Rate of PAI-1 Activity (%) for CC(C)(C)c1ccc(COc2c(/C=C/C(=O)O)cccc2-c2ccc(OC(F)(F)F)cc2)cc1 fall at or above the 90% mark?
Y

Does the reported Inhibition Rate of PAI-1 Activity (%) for Cc1ccc(-c2cccc([N+](=O)[O-])c2)cc1N(Cc1ccc(C(C)(C)C)cc1)C(=O)C(=O)O fall at or above the 90% mark?
N

Does the reported Inhibition Rate of PAI-1 Activity (%) for CC(C)(C)c1ccc(COc2ccc(-c3ccc(C(C)(C)C)cc3)cc2/C=C/C(=O)O)cc1 fall at or above the 90% mark?
Y
